- System: Bacillus subtilis PCI 219
- protocol.summary: MIC by serial two-fold agar dilution, B. subtilis PCI 219
- Assay type: cell-based
- test.conditions: Bacillus subtilis, PCI219; Table 7; Mueller-Hinton agar; read-out: MIC
measurement.kind: log10 of MIC (log10 of the value in µg/mL)
Base-10 log of MIC, unit µg/mL.

Query :: Query (compound): NC[C@H]1O[C@H](O[C@H]2[C@H](O[C@@H]3O[C@H](CO)[C@@H](O[C@H]4O[C@@H](CO)[C@@H](O)[C@H](O)[C@H]4N)[C@H]3O)[C@@H](O)[C@H](O)C[C@@H]2N)[C@H](N)[C@@H](O)[C@@H]1O [Bu-2659D] ; field requested: log10 of MIC
Result :: 0.20

Query :: Fill in the blank: the reported log10 of MIC of NC[C@@H]1O[C@H](O[C@H]2[C@@H](O)[C@H](O[C@@H]3[C@@H](O)[C@H](O)C[C@H](N)[C@H]3O[C@H]3O[C@H](CO)[C@@H](O)[C@H](O)[C@H]3N)O[C@@H]2CO)[C@H](N)[C@@H](O)[C@@H]1O [Bu-2659C, 1-deamino-1-hydroxyparomomycin I] is ____.
Result :: -0.10

Query :: # lookup: log10 of MIC of NC[C@H]1O[C@H](O[C@H]2[C@H](O[C@@H]3O[C@H](CO)[C@@H](O)[C@H]3O)[C@@H](O)[C@H](O)C[C@@H]2N)[C@H](N)[C@@H](O)[C@@H]1O [Bu-2659E, 1-deamino-1-hydroxyribostamycin]
Result :: 0.49

Query :: Item NC[C@@H]1O[C@H](O[C@H]2[C@@H](O)[C@H](O[C@@H]3[C@@H](O)[C@H](O)C[C@H](N)[C@H]3O[C@H]3O[C@H](CN)[C@@H](O)[C@H](O)[C@H]3N)O[C@@H]2CO)[C@H](N)[C@@H](O)[C@@H]1O [Bu-2659A, 1-deamino-1-hydroxyneomycin B] has what recorded log10 of MIC?
Result :: -1.00

Query :: Would you kindly share the measured log10 of MIC for NC[C@H]1O[C@H](O[C@H]2[C@H](O[C@@H]3O[C@H](CO)[C@@H](O[C@H]4O[C@H](CN)[C@@H](O)[C@H](O)[C@H]4N)[C@H]3O)[C@@H](O)[C@H](O)C[C@@H]2N)[C@H](N)[C@@H](O)[C@@H]1O [Bu-2659B, 1-deamino-1-hydroxyneomycin C] ?
Result :: -0.40

====

- Tested on: Staphylococcus aureus Smith
- protocol.summary: MIC by serial two-fold agar dilution, S. aureus Smith
- Format: cell-based
- test.conditions: Staphylococcus aureus
measurement.kind: MIC
Quick note: number first, unit second.

As a guide, the following entries are already answered.
NC[C@H]1O[C@H](O[C@H]2[C@H](O)[C@@H](O)[C@H](N)C[C@@H]2N)[C@H](N)[C@@H](O)[C@@H]1O [Neamine, neamine]: 3.1 µg/mL
NC[C@@H]1O[C@H](O[C@H]2[C@@H](O)[C@H](O[C@@H]3[C@@H](O)[C@H](N)C[C@H](N)[C@H]3O[C@H]3O[C@H](CO)[C@@H](O)[C@H](O)[C@H]3N)O[C@@H]2CO)[C@H](N)[C@@H](O)[C@@H]1O [Paromomycin, paromomycin]: 1.6 µg/mL

Continue with the compound presented below.
Query :: Give its MIC value. Item: NC[C@H]1O[C@H](O[C@H]2[C@H](O[C@@H]3O[C@H](CO)[C@@H](O)[C@H]3O)[C@@H](O)[C@H](N)C[C@@H]2N)[C@H](N)[C@@H](O)[C@@H]1O [Ribostamycin, ribostamycin]
Result :: 3.1 µg/mL

====

- Tested on: Proteus morganii A9553
- protocol.summary: MIC by serial two-fold agar dilution, P. morganii A9553
- Assay type: cell-based
- test.conditions: Morganella morganii, A9553
- Method: The minimum inhibitory concentrations (MIC) of Bu-2659A, B, C, D and E were determined for a variety of gram-positive and gram-negative bacteria by the serial two-fold agar dilution method using the Steer's multi-inoculating apparatus. The inoculum was standardized as a 10^4 dilution of an overnight culture of the test organisms in Heart Infusion Broth (Difco). […]
// reported MIC for each item listed
State just the number; it will be interpreted in µg/mL.

Below, 3 compounds whose answers are already recorded.
NC[C@@H]1O[C@H](O[C@H]2[C@@H](O)[C@H](O[C@@H]3[C@@H](O)[C@H](N)C[C@H](N)[C@H]3O[C@H]3O[C@H](CO)[C@@H](O)[C@H](O)[C@H]3N)O[C@@H]2CO)[C@H](N)[C@@H](O)[C@@H]1O: 1.6
NC[C@@H]1O[C@H](O[C@H]2[C@@H](O)[C@H](O[C@@H]3[C@@H](O)[C@H](N)C[C@H](N)[C@H]3O[C@H]3O[C@H](CN)[C@@H](O)[C@H](O)[C@H]3N)O[C@@H]2CO)[C@H](N)[C@@H](O)[C@@H]1O: 3.1
NC[C@H]1O[C@H](O[C@H]2[C@H](O[C@@H]3O[C@H](CO)[C@@H](O)[C@H]3O)[C@@H](O)[C@H](N)C[C@@H]2N)[C@H](N)[C@@H](O)[C@@H]1O: 1.6

We next turn to a different compound, shown below.
Query :: Could you share what MIC was measured for NC[C@H]1O[C@H](O[C@H]2[C@H](O[C@@H]3O[C@H](CO)[C@@H](O[C@H]4O[C@H](CN)[C@@H](O)[C@H](O)[C@H]4N)[C@H]3O)[C@@H](O)[C@H](N)C[C@@H]2N)[C@H](N)[C@@H](O)[C@@H]1O , tested on Proteus morganii A9553?
Result :: 3.1

====

- Tested on: Micrococcus luteus PCI 1001
- protocol.summary: MIC by serial two-fold agar dilution, M. luteus PCI 1001
- Type: cell-based
- test.conditions: Micrococcus luteus, PCI1001; Table 7; Mueller-Hinton agar; read-out: MIC
measurement.kind: MIC (µg/mL)
I only need the number, in µg/mL, no unit after it.

NC[C@H]1O[C@H](O[C@H]2[C@H](O[C@@H]3O[C@H](CO)[C@@H](O[C@H]4O[C@@H](CO)[C@@H](O)[C@H](O)[C@H]4N)[C@H]3O)[C@@H](O)[C@H](O)C[C@@H]2N)[C@H](N)[C@@H](O)[C@@H]1O [Bu-2659D]: 100

Query :: Which value of MIC has been reported for NC[C@@H]1O[C@H](O[C@H]2[C@@H](O)[C@H](O[C@@H]3[C@@H](O)[C@H](O)C[C@H](N)[C@H]3O[C@H]3O[C@H](CN)[C@@H](O)[C@H](O)[C@H]3N)O[C@@H]2CO)[C@H](N)[C@@H](O)[C@@H]1O [Bu-2659A, 1-deamino-1-hydroxyneomycin B] in the records?
Result :: 3.1

====

Reported MIC values for a set of compounds
- Test system: Escherichia coli NIHJ
- protocol.summary: MIC by serial two-fold agar dilution, E. coli NIHJ
- Type: cell-based
- test.conditions: Escherichia coli
Mention the unit after the number when you answer.

Some solved entries appear below for comparison.
NC[C@H]1O[C@H](O[C@H]2[C@H](O)[C@@H](O)[C@H](N)C[C@@H]2N)[C@H](N)[C@@H](O)[C@@H]1O: 12.5 µg/mL
NC[C@@H]1O[C@H](O[C@H]2[C@@H](O)[C@H](O[C@@H]3[C@@H](O)[C@H](N)C[C@H](N)[C@H]3O[C@H]3O[C@H](CN)[C@@H](O)[C@H](O)[C@H]3N)O[C@@H]2CO)[C@H](N)[C@@H](O)[C@@H]1O: 1.6 µg/mL
NC[C@H]1O[C@H](O[C@H]2[C@H](O[C@@H]3O[C@H](CO)[C@@H](O)[C@H]3O)[C@@H](O)[C@H](N)C[C@@H]2N)[C@H](N)[C@@H](O)[C@@H]1O: 3.1 µg/mL

Turning to the following compound.
Query :: // MIC lookup, key: NC[C@H]1O[C@H](O[C@H]2[C@H](O[C@@H]3O[C@H](CO)[C@@H](O[C@H]4O[C@H](CN)[C@@H](O)[C@H](O)[C@H]4N)[C@H]3O)[C@@H](O)[C@H](N)C[C@@H]2N)[C@H](N)[C@@H](O)[C@@H]1O
Result :: 3.1 µg/mL

====

The reader will find reported MIC values listed item by item below.
- System: Staphylococcus aureus 209P
- protocol.summary: MIC by serial two-fold agar dilution, S. aureus 209P
- Type: cell-based
- test.conditions: Staphylococcus aureus, 209P
// note: answer is a bare numeric in µg/mL

Here are 3 compounds together with their reported answers.
NC[C@H]1O[C@H](O[C@H]2[C@H](O[C@@H]3O[C@H](CO)[C@@H](O[C@H]4O[C@H](CN)[C@@H](O)[C@H](O)[C@H]4N)[C@H]3O)[C@@H](O)[C@H](N)C[C@@H]2N)[C@H](N)[C@@H](O)[C@@H]1O: 0.8
NC[C@H]1O[C@H](O[C@H]2[C@H](O)[C@@H](O)[C@H](N)C[C@@H]2N)[C@H](N)[C@@H](O)[C@@H]1O: 6.3
NC[C@@H]1O[C@H](O[C@H]2[C@@H](O)[C@H](O[C@@H]3[C@@H](O)[C@H](N)C[C@H](N)[C@H]3O[C@H]3O[C@H](CO)[C@@H](O)[C@H](O)[C@H]3N)O[C@@H]2CO)[C@H](N)[C@@H](O)[C@@H]1O: 0.8

Query :: Find the recorded MIC belonging to NC[C@@H]1O[C@H](O[C@H]2[C@@H](O)[C@H](O[C@@H]3[C@@H](O)[C@H](N)C[C@H](N)[C@H]3O[C@H]3O[C@H](CN)[C@@H](O)[C@H](O)[C@H]3N)O[C@@H]2CO)[C@H](N)[C@@H](O)[C@@H]1O and report it.
Result :: 0.4

Query :: Tell me the measured MIC of NC[C@H]1O[C@H](O[C@H]2[C@H](O[C@@H]3O[C@H](CO)[C@@H](O)[C@H]3O)[C@@H](O)[C@H](N)C[C@@H]2N)[C@H](N)[C@@H](O)[C@@H]1O , please.
Result :: 1.6
